- TEST TARGET: Human PARP-1 enzyme (Homo sapiens, UniProt P09874)
- Construct: purchased Trevigen
- Sequence (P09874 whole entry): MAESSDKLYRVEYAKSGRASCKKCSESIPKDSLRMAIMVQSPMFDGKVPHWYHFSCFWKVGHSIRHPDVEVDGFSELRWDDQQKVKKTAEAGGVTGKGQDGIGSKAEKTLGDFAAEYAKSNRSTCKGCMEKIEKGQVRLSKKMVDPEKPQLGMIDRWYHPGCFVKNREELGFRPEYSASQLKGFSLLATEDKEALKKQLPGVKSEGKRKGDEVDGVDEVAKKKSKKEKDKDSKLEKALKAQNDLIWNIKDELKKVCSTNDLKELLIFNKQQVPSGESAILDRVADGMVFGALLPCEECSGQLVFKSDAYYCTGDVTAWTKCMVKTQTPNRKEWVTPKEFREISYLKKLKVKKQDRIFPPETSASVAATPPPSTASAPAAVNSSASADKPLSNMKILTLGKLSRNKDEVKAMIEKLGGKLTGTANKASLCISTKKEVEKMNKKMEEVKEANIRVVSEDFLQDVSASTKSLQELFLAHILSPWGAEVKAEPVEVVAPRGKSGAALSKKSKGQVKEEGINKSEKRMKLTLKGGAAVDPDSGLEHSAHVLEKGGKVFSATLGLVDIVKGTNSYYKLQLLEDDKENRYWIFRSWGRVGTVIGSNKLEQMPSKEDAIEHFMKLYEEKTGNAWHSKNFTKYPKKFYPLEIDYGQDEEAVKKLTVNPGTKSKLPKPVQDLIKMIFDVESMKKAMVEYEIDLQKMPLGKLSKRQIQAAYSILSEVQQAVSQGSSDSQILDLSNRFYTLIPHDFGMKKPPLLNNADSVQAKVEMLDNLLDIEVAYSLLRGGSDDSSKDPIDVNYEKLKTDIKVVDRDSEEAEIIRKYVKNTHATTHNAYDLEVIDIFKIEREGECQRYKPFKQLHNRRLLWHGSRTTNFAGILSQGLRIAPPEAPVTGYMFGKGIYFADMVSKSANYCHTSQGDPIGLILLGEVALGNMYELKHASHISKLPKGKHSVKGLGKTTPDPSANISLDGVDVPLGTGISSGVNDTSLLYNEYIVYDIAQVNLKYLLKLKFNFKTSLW
- ASSAY SUMMARY: In vitro Scintillation Proximity Assay (SPA) for PARP-1 inhibitory activity
- Format: biochemical
- RUN PARAMETERS: read-out: in vitro SPA assay PARP-1 pIC50 (converted)
- Experimental: Compounds of the present invention were tested in an in vitro assay based on SPA technology (proprietary to GE healthcare). […] Histones (type II-A, supplier: Sigma) were biotinylated using the biotinylation kit of Amersham and stored aliquoted at −20° C. […] The beads were sedimented by centrifugation (10 min, 800 rpm). and plates transferred to a TopCountNXT™ (Packard) for scintillation counting, values were expressed as counts per minute (cpm). […]
Exercise: for every item that follows, state its recorded log10 IC50.
Heads up: the numbers are on a log10 scale; they represent IC50 in nM.

Example entries and their recorded answers appear below.
* CCc1cc2ccc(C(C)(C#N)Cc3cccc(C#Cc4cncn4C)n3)cc2[nH]c1=O (centres unmarked) [Compound 217] | 1.90
* CCc1cc2ccc(C(C)(C#N)Cc3nc(Cl)cc(OC)n3)cc2[nH]c1=O (centres unmarked) [Compound 202] | 1.90
* CCc1cc2ccc(C(C)(C#N)Cc3c(C)cccc3C)cc2[nH]c1=O (centres unmarked) [Compound 84] | 3.10

Consider the following items and state reported log10 IC50 for each.
1. CCc1cc2ccc(C(C)(C#N)Cc3ccc4c(c3)OCCO4)cc2[nH]c1=O (centres unmarked) [Compound 124]
2. CCc1cc2ccc([C@](C)(C#N)Cc3cccc(C#CCO)c3)cc2[nH]c1=O (single isomer, unassigned) [Compound 296]
3. CCc1cc2ccc(C(C)(C#N)Cc3ccc4ccccc4n3)cc2[nH]c1=O (centres unmarked) [Compound 336]
4. CCc1cc2ccc(C(C)(C#N)Cc3ccc(Br)cc3)cc2[nH]c1=O (centres unmarked) [Compound 118]
5. C#Cc1cccc(CC(C)(C#N)c2ccc3cc(CC)c(=O)[nH]c3c2)n1 (centres unmarked) [Compound 211]

Reply text:
1. 2.70
2. 1.50
3. 1.90
4. 2.60
5. 2.10

---

Exercise: for every item that follows, state its recorded IC50.
- TEST TARGET: TANK-2 enzyme (Homo sapiens)
- Construct: made in house
- Sequence (Q9H2K2 whole entry): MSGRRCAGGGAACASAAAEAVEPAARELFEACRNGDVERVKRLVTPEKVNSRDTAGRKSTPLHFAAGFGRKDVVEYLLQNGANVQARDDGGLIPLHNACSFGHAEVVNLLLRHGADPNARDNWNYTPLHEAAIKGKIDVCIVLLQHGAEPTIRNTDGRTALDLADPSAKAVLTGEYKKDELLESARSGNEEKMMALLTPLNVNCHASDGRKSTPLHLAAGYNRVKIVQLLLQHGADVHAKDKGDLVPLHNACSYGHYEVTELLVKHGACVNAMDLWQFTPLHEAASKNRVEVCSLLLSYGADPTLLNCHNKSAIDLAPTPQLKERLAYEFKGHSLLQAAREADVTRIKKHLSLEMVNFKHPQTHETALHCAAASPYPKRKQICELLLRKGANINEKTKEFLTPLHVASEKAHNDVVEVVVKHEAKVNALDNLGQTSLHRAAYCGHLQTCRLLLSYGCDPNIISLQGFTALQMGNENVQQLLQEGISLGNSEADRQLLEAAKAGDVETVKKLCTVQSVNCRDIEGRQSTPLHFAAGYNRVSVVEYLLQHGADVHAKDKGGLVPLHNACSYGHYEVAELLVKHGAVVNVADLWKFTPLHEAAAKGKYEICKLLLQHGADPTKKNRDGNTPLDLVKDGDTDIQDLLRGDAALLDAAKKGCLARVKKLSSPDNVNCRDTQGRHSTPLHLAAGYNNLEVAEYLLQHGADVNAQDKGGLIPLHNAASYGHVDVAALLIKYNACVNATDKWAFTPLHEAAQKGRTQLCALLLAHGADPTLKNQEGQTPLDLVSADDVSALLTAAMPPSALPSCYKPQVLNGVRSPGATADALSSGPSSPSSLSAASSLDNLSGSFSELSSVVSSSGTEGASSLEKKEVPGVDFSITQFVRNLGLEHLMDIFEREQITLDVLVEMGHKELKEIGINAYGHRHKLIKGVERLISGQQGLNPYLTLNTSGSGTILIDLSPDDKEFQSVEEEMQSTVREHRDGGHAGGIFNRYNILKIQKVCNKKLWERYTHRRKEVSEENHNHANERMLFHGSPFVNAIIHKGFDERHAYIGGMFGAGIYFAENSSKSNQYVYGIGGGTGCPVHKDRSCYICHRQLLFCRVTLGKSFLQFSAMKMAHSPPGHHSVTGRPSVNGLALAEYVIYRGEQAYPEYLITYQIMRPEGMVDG
- ASSAY SUMMARY: In vitro Scintillation Proximity Assay (SPA) for TANK-2 inhibitory activity
- Type: biochemical
- RUN PARAMETERS: read-out: in vitro SPA assay TANK-2 pIC50 (converted)
Answers are plain numbers, in nM.

Example entries and their recorded answers appear below.
• Cc1cc2ccc(C(C)(C#N)Cc3cccc(Oc4ccccc4)n3)cc2[nH]c1=O (centres unmarked) = 631
• CCc1cc2ccc(C(C)(C#N)Cc3cccc(CN(C)C)c3)cc2[nH]c1=O (centres unmarked) = 158
• CCc1cc2cc(OCCOC)c(C(C)(C#N)Cc3cccc(C#N)c3)cc2[nH]c1=O (centres unmarked) = 31.6
• CCc1cc2ccc(C(C)(C#N)Cc3c(Cl)cccc3Cl)cc2[nH]c1=O (centres unmarked) = 50.1
• CCc1cc2ccc(C(C)(C#N)Cc3ccccc3C)cc2[nH]c1=O (centres unmarked) = 20
• CCc1cc2ccc(C(C)(C#N)Cc3cccc(OCCCC#N)c3)cc2[nH]c1=O (centres unmarked) = 126

Consider the following items and state reported IC50 for each.
1. CCC[C@](C#N)(Cc1ccccc1)c1ccc2cc(CC)c(=O)[nH]c2c1 (single isomer, unassigned)
2. CCc1cc2ccc(C(C)(C#N)CCOc3ccc(F)cc3)cc2[nH]c1=O (centres unmarked)
3. CCc1cc2ccc(C(C)(C#N)Cc3nccc(OC)n3)cc2[nH]c1=O (centres unmarked)
4. CCc1cnc(OCCC(C)(C#N)c2ccc3cc(CC)c(=O)[nH]c3c2)nc1 (centres unmarked)
5. CCc1cc2ccc(C(C)(C#N)Cc3ccc(C#N)cc3)cc2[nH]c1=O (centres unmarked)

Reply text:
[2510, 100, 126, 100, 31.6]

FYI, the data here is from patent US8778966B2.
